- study-system: GDP-bound KRAS wild-type protein (Homo sapiens, UniProt P01116)
- Sequence (P01116 1-188 isoform P01116-2): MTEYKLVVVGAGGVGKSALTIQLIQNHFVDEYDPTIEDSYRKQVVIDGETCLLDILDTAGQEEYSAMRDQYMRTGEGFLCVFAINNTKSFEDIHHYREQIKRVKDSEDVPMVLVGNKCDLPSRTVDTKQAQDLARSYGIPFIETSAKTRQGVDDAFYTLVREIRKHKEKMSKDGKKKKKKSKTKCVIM
- method-description: Binding to KRAS by surface plasmon resonance (SPR), dissociation constant KD
- experimental-setup: Single Cycle Kinetics, 1:1 binding model
pKd: −log10 of the molar value.
quantity-name: pKd

1. CCO[C@@H]1C[C@H]2C(=O)NC3(CCC3)C(=O)N(C)[C@@H](C3CCCC3)C(=O)N(C)[C@H](C(=O)N(C)C)CC(=O)N(C)[C@@H](CC3CCCC3)C(=O)N[C@@H]([C@@H](C)CC)C(=O)N(C)CC(=O)N(C)[C@H]3C/C=C\CCN(C3=O)[C@@H](Cc3ccc(C(F)(F)F)cc3)C(=O)N(C)CC(=O)N[C@@H](CCc3ccc(C(F)(F)F)c(OC)c3)C(=O)N2C1    10.16
2. CCO[C@@H]1C[C@H]2C(=O)NC3(CCC3)C(=O)N(C)[C@@H](C3CCCC3)C(=O)N(C)[C@H](C(=O)N(C)C)CC(=O)N(C)[C@@H](CC3CC3)C(=O)N[C@@H]([C@@H](C)CC)C(=O)N(C)CC(=O)N(C)[C@H]3C/C=C\CCN(C3=O)[C@@H](CC3CCC(F)(F)CC3)C(=O)N(C)CC(=O)N[C@@H](CCc3cc(F)c(C(F)(F)F)c(F)c3)C(=O)N2C1    9.92
3. CC[C@H](C)[C@@H]1NC(=O)[C@H](CC(C)C)N(C)C(=O)C[C@@H](C(=O)N2CCOCC2)NC(=O)[C@H](C2CCCC2)N(C)C(=O)C2(CCCC2)NC(=O)[C@@H]2CCCN2C(=O)[C@H](CCc2cc(F)c(C(F)(F)F)c(F)c2)NC(=O)CN(C)C(=O)[C@H](Cc2ccc(C(F)(F)F)cc2)N2CCCC[C@@H](C2=O)N(C)C(=O)CN(C)C1=O    9.33

* * *

This listing pairs compounds with measured pKd.
- study-system: GDP-bound KRAS wild-type protein (Homo sapiens)
- method-description: Binding to KRAS by surface plasmon resonance (SPR), dissociation constant KD
- experimental-setup: Single Cycle Kinetics
pKd: −log10 of the molar value.
quantity-name: pKd

1. CC[C@H](C)[C@@H]1NC(=O)[C@H](Cc2cccc(F)c2)N(C)C(=O)C[C@@H](C(=O)N2CCOCC2)N(C)C(=O)[C@H](C2CCCC2)N(C)C(=O)C2(CCCC2)NC(=O)[C@@H]2CCCN2C(=O)[C@H](CCc2ccc(C(F)(F)F)c(Cl)c2)NC(=O)CN(C)C(=O)[C@H](Cc2ccc(F)cc2)N2CCCCC[C@@H](C2=O)N(C)C(=O)CN(C)C1=O    9.19
2. CCO[C@@H]1C[C@H]2C(=O)NC3(CCC3)C(=O)N(C)[C@@H](C3CCCC3)C(=O)N(C)[C@H](C(=O)N(C)C)CC(=O)N(C)[C@@H](Cc3ccccc3C)C(=O)N[C@@H]([C@@H](C)CC)C(=O)N(C)CC(=O)N(C)[C@H]3CCCCCN(C3=O)[C@@H](Cc3ccc(C(F)(F)F)cc3)C(=O)N(C)CC(=O)N[C@@H](CCc3cc(F)c(C(F)(F)F)c(F)c3)C(=O)N2C1    8.92
3. CCO[C@@H]1C[C@H]2C(=O)OC3(CCC3)C(=O)N(C)[C@@H](C3CCCC3)C(=O)N(C)[C@H](C(=O)N(C)C)CC(=O)N(C)[C@@H]([C@H](C)OC)C(=O)N[C@@H]([C@@H](C)CC)C(=O)N(C)CC(=O)N(C)[C@H]3C/C=C\CCN(C3=O)[C@@H](Cc3ccc(C(F)(F)F)cc3)C(=O)N(C)CC(=O)N[C@@H](CCc3ccc(C(F)(F)F)c(OC)c3)C(=O)N2C1    9.62
4. CCCCO[C@H]1CCN2C(=O)[C@H](CCc3cc(F)c(C(F)(F)F)c(F)c3)NC(=O)CN(C)C(=O)[C@H](Cc3ccc(C(F)(F)F)cc3)N3CCCCC[C@@H](C3=O)N(C)C(=O)CN(C)C(=O)[C@H]([C@@H](C)CC)NC(=O)[C@H](CC(C)C)N(C)C(=O)C[C@@H](C(=O)N3CCOCC3)N(C)C(=O)[C@H](C3CCCC3)N(C)C(=O)C3(CCC3)NC(=O)[C@H]12    8.70
5. CCCO[C@@H]1C[C@H]2C(=O)NC3(CC(C)(C)C3)C(=O)N(C)[C@@H](C3CCCC3)C(=O)N(C)[C@H](C(=O)N(C)CC)CC(=O)N(C)[C@@H](COCC)C(=O)N[C@@H]([C@@H](C)CC)C(=O)N3C[C@@H](F)C[C@H]3C(=O)N(C)[C@H]3C/C=C\CCN(C3=O)[C@@H](Cc3ccc(C(F)(F)F)cc3)C(=O)N(C)CC(=O)N[C@@H](CCc3ccc(C(F)(F)F)c(OC)c3)C(=O)N2C1    9.44
6. CC[C@H](C)[C@@H]1NC(=O)[C@H](CC(C)C)N(C)C(=O)C[C@@H](C(=O)N(C)C)N(CCC2CCCC2)C(=O)[C@H](C2CCCC2)N(C)C(=O)C2(CCCC2)NC(=O)[C@@H]2CCCN2C(=O)[C@H](CCc2ccc(C(F)(F)F)c(Cl)c2)NC(=O)CN(C)C(=O)[C@H](Cc2ccc(F)cc2)N2CCCCC[C@@H](C2=O)N(C)C(=O)CN(C)C1=O    8.05
7. CCO[C@@H]1C[C@H]2C(=O)NC3(CCC3)C(=O)N(C)[C@@H](C3CCCC3)C(=O)N(C)[C@H](C(=O)N3C4CCC3COC4)CC(=O)N(C)[C@@H](CC)C(=O)N[C@@H]([C@@H](C)CC)C(=O)N(C)CC(=O)N(C)[C@H]3C/C=C\CCN(C3=O)[C@@H](Cc3ccc(C(F)(F)F)cc3)C(=O)N(C)CC(=O)N[C@@H](CCc3cc(F)c(C(F)(F)F)c(F)c3)C(=O)N2C1    9.24
8. C#CCN1CC(=O)N(C)[C@H]2C/C=C\CCN(C2=O)[C@@H](Cc2ccc(C(F)F)cc2)C(=O)N(C)CC(=O)N[C@@H](CCc2cc(F)c(C(F)(F)F)c(F)c2)C(=O)N2C[C@H](OC(C)C)C[C@H]2C(=O)N(C)C2(CCC2)C(=O)N(C)[C@@H](C(CC)CC)C(=O)N(C)[C@H](C(=O)N(C)C)CC(=O)N(C)[C@@H](CC(F)(F)F)C(=O)N[C@@H](C(C)C)C1=O    9.37
9. C#CC[C@H]1C(=O)N[C@@H]([C@@H](C)CC)C(=O)N2CCCC[C@H]2C(=O)N(C)[C@H]2C/C=C\CCN(C2=O)[C@@H](Cc2ccc(C(F)(F)F)cc2)C(=O)N(C)CC(=O)N[C@@H](CCc2cc(F)c(C(F)(F)F)c(F)c2)C(=O)N2C[C@H](OCC)C[C@H]2C(=O)N(C)C2(CCC2)C(=O)N(C)[C@@H](C2CCCC2)C(=O)N(C)[C@H](C(=O)N(C)C)CC(=O)N1C    8.92
10. CCC[C@H]1C(=O)N[C@@H]([C@@H](C)CC)C(=O)N(C2CC2)CC(=O)N(C)[C@H]2C/C=C\CCN(C2=O)[C@@H](Cc2ccc(C(F)(F)F)cc2)C(=O)N(C)CC(=O)N[C@@H](CCc2cc(F)c(C(F)(F)F)c(F)c2)C(=O)N2C[C@H](OCC)C[C@H]2C(=O)NC2(CCCC2)C(=O)N(C)[C@@H](C2CCCC2)C(=O)N(C)[C@H](C(=O)N(C)C)CC(=O)N1C    9.28
11. CCCC[C@H]1C(=O)N[C@@H]([C@@H](C)CC)C(=O)N2CCC[C@H]2C(=O)N(C)[C@H]2C/C=C\CCN(C2=O)[C@@H](Cc2ccc(C(F)(F)F)cc2)C(=O)N(C)CC(=O)N[C@@H](CCc2ccc(C(F)(F)F)c(OC)c2)C(=O)N2C[C@H](OCC)C[C@H]2C(=O)OC2(CCC2)C(=O)N(C)[C@@H](C2CCCC2)C(=O)N(C)[C@H](C(=O)N(C)C)CC(=O)N1C    9.19
